- Assay: Selectivity index, ratio of IC50 for mouse RAW264.7 cells to MIC for methicillin-resistant Staphylococcus aureus ATCC515992
- Type: toxicity
Metric: selectivity ratio

Record Smiles | selectivity ratio
COc1cc(/C=C/c2ccc(C(F)(F)F)cc2)c(C(=O)O)c(O)c1CC=C(C)C | 51.4
COc1cc(/C=C/c2cccc(F)c2)c(C(=O)O)c(O)c1CC=C(C)C | 20.2
COc1cc(/C=C/c2ccc(F)cc2F)c(C(=O)O)c(O)c1CC=C(C)C | 46.5

Continue with the next molecule.
For the molecule `COc1cc(/C=C/c2ccccc2F)c(C(=O)O)c(O)c1CC=C(C)C` , what selectivity ratio is on record?
12.3
